Test: label from the status in PepcDB records
property: protein production

These recorded examples may help you get a feel for the data.
biopolymer-sequence	protein production
MSIAIRIATIGALCAASAALSGCGSVGAASGALAGAATGLVTANPAVGVGVGIAVQAATDEAVNRTMKQLHQNQQDAIAKAAGSLAVGEVKPWKVKNTLPLENGEGEVRVTRAYSTALALCKEFAFSVKDGDKADWYFANACQQGTHWKWASAEPAVDRWGNLQ	failed
VENLKAQALCSWTAKKDNHLNFSKHDIITVLEQQENWWFGEVHGGRGWFPKSYVKIIPGSE	not failed
MTNAISNFTIYAFVALGGACGASLRFYISQLVLNWLGKGFPFATLMVNIIGSFTMGLLYQLIEHEILNVSVHRTLIGIGFLGAFTTFSTFSLDSLLLLQQGDVLKAAINILLNVSLCIAAAALGMFMVTTLTK	failed
DEWTDVKKVMALGFFDGVHLGHQAVIKQAKQIAEEKGLQTAVLTFDPHPSVVLSNIRKQVKYLTPLEDKAEKMANLGVDIMYVVRFTTQFSELSPRAFVDNYLVALNVKHVVAGFDYSYGKKGEGKMTELENYANGRFEVTIVDKQTAASDKISSTNIRRAITEGELEEANQLLGYP	not failed

IN: Note protein production for the sequence shown: PNFSHWGPPRIVEIFREPNVSLGISIVGGQTVIKRLKNGEELKGIFIKQVLEDSPAGKTNALKTGDKILEVSGVDLQNASHSEAVEAIKNAGNPVVFIVQSLSSTPRVIP
OUT: not failed
